Values were extracted from patent US11180494B2.

# EXPERIMENTAL TARGET: human integrin αvβ6 (Homo sapiens (Human), UniProt P06756+P18564)
# Sequence (P06756 31-992): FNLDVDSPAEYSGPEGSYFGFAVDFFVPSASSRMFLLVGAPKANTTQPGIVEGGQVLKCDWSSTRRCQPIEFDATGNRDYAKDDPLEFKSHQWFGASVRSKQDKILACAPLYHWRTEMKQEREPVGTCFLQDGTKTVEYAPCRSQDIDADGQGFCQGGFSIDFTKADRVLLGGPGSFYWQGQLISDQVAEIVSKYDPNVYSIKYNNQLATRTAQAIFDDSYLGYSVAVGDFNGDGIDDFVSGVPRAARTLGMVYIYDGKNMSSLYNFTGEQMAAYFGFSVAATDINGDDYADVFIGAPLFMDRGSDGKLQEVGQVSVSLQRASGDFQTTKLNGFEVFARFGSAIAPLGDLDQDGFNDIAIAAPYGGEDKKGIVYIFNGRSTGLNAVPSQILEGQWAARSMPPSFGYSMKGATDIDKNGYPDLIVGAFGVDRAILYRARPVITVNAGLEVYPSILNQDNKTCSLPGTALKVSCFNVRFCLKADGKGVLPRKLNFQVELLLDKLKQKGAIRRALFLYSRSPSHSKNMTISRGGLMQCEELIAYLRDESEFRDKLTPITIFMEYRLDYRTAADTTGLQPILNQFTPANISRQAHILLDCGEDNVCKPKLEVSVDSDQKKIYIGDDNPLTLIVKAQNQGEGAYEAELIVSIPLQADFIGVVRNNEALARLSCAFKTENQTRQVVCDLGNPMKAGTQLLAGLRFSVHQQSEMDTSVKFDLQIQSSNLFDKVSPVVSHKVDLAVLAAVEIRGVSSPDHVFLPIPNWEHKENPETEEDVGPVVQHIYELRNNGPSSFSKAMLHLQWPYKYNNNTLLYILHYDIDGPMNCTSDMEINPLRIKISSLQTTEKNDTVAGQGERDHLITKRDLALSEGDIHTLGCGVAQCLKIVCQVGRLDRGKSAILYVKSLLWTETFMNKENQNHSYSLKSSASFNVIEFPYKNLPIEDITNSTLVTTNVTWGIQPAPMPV
# Sequence (P18564 22-707): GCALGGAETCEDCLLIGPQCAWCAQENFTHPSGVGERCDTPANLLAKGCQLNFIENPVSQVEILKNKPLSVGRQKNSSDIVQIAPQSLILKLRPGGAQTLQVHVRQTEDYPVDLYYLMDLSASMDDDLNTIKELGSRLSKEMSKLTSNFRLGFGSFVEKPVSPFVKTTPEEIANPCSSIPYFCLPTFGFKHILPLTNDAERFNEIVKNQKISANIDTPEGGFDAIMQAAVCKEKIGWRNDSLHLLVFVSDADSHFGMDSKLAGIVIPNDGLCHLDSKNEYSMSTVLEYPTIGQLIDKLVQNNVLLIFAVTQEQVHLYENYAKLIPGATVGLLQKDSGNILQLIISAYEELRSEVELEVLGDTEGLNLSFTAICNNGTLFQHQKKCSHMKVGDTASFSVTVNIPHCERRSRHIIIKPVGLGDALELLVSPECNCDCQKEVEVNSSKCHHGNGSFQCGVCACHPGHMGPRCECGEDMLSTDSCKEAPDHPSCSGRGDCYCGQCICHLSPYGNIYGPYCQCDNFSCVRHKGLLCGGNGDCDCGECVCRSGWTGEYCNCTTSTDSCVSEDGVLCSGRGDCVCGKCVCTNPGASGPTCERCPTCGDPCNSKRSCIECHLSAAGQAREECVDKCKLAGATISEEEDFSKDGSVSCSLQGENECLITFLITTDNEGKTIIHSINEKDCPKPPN
# PROTOCOL TEXT: Proximity-based integrin receptor binding assay (ALPHASCREEN) for inhibitor potency
# CONDITION DETAILS: inhibition of binding of TGF-b1 LAP to human integrin αvβ6; values given in ranges
MEASUREMENT NAME: IC50

O=C(N[C@@H](CCO[C@H]1C[C@H](CCc2ccc3c(n2)NCCC3)C1)C(=O)O)c1cccc(C2CC2)c1 [Compound 56]
50 to 250 nM
CC(C)(C)COC(=O)N[C@@H](CCO[C@H]1C[C@H](CCc2ccc3c(n2)NCCC3)C1)C(=O)O [Compound 112]
50 to 250 nM
CC1(OC(=O)N[C@@H](CCO[C@H]2C[C@H](CCc3ccc4c(n3)NCCC4)C2)C(=O)O)CN(S(C)(=O)=O)C1 [Compound 128]
50 to 250 nM

Then there is this compound:
Value lookup for IC50; key = O=C(N[C@@H](CCO[C@H]1C[C@H](CCc2ccc3c(n2)NCCC3)C1)C(=O)O)c1ccccc1C1CC1 [Compound 52] < 50 nM

---

# EXPERIMENTAL TARGET: human integrin αvβ6 (Homo sapiens (Human), UniProt P06756+P18564)
# PROTOCOL TEXT: Proximity-based integrin receptor binding assay (ALPHASCREEN) for inhibitor potency
# CONDITION DETAILS: inhibition of binding of TGF-b1 LAP to human integrin αvβ6; values given in ranges
pIC50: −log10 of the molar value.
MEASUREMENT NAME: pIC50

Solved entries (count: 3):
O=C(N[C@@H](CCO[C@H]1C[C@H](CCc2ccc3c(n2)NCCC3)C1)C(=O)O)c1c(F)cccc1F [Compound 32]
> 7.30
CCC(CC)CC(=O)N[C@H](CCO[C@H]1C[C@H](CCc2ccc3c(n2)NCCC3)C1)C(=O)O [Compound 59]
< 6.00
CC(C)(C)c1nccc(N[C@@H](CCO[C@H]2C[C@H](CCc3ccc4c(n3)NCCC4)C2)C(=O)O)n1 [Example 225]
6.00 to 6.60

Then there is this compound:
Value lookup for pIC50; key = O=C(NC(CCO[C@H]1C[C@H](CCc2ccc3c(n2)NCCC3)C1)C(=O)O)c1cccc(-c2cncs2)c1 (stereo partly shown) [Compound 49] 6.60 to 7.30
